B1: HDV Ribozyme (parent)
chain: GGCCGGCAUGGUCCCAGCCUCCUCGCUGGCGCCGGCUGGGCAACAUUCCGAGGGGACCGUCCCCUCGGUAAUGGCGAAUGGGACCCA

Variants of: B1
Test: self-cleavage, relative activity (ratio to wild type); higher = more cleavage; co-transcriptional
property: self-cleavage
API note: the answer field is a bare number with no unit suffix.

Record excerpt, results attached:
{"sequence.variant": "U23A C64G", "self-cleavage": 1.03}
{"sequence.variant": "C36A G40U", "self-cleavage": 0.161}
{"sequence.variant": "U23A G34A", "self-cleavage": 0.121}
{"sequence.variant": "C21G A77G", "self-cleavage": 0.0386}
{"sequence.variant": "C19A U79G", "self-cleavage": 0.0923}
{"sequence.variant": "C14A C24U", "self-cleavage": 0.0361}
{"sequence.variant": "A51U C57U", "self-cleavage": 0.801}
{"sequence.variant": "C14U U60A", "self-cleavage": 1.23}
{"sequence.variant": "U20A A87C", "self-cleavage": 0.0631}
{"sequence.variant": "G67C C84A", "self-cleavage": 0.682}

Lookup: Entry C61A C86G : reported self-cleavage = ?
Found: 0.908

Lookup: What do you get for C33G C49U ?
Found: 0.0923

// provenance: the RNAGym collection of RNA variant scans (doi:10.7554/elife.80360)
